Test system: Wolbachia pipientis
Assay: Anti-Wolbachia Cell-Based Screen
Format: functional
Set-up: scale not given: in the data most compounds retested in dose-response had high values
Details: 5 µM
Among all 48,000 compounds or so, about 13,000 (27%) showed an effect of 50% or more. The list shows a part of the results.
Measurement name: Percent Effect (%)
A number alone suffices; assume %.

Consider the following illustrative entries.
Qu. Report Percent Effect for COc1ccccc1C(O)CNC(=O)NCc1cccnc1OC (stereo unspecified) please.
Ans. -5.086

Qu. Report Percent Effect for Cc1csc(C(=O)N2CCC3(CC(N(C)c4ccncn4)C3)C2)c1 (stereo unspecified) please.
Ans. 119.5

Qu. Report Percent Effect for Cn1cnnc1C1CCCN(C(=O)NCCNc2ccccn2)C1 (stereo unspecified) please.
Ans. 14.43

Qu. Report Percent Effect for COc1cc2c(cc1-c1nc3c(cnn3C(C)C(C)C)[nH]1)OCO2 (stereo unspecified) please.
Ans. -3.309

Qu. Report Percent Effect for Cn1cnnc1C1CCCN(C(=O)NCCn2ccnc2)C1 (stereo unspecified) please.
Ans. 89.71

Others:
Qu. Report Percent Effect for CCN(CC)C(=O)CNC(=O)c1cnc(-c2ccccc2)nc1 please.
Ans. 0.8892

====

Reported Percent Effect values follow for various compounds
Tested on: Wolbachia pipientis
Assay: Anti-Wolbachia Cell-Based Screen
Format: functional
Design: scale not given: in the data most compounds retested in dose-response had high values
Conditions: 5 µM
The whole screen tested about 48,000 compounds, of which about 13,000 (27%) showed an effect of 50% or more. Some of the results follow.
A number alone suffices; assume %.

Consider the following illustrative entries.
Qu. Report Percent Effect for CCc1cnc(CN2CCOC(c3nc(C)n[nH]3)C2)o1 (stereo not given) please.
Ans. -1.85

Qu. Report Percent Effect for Cc1ccc(CN(Cc2[nH]cnc2C)C2CC(C)(C)NC(C)(C)C2)o1.O=C(O)CC(O)(CC(=O)O)C(=O)O please.
Ans. 115.3

Qu. Report Percent Effect for Cc1ccc(CN2C[C@H]3CC[C@@H]2CN(Cc2[nH]cnc2C)C3)o1 please.
Ans. 6.692

Qu. Report Percent Effect for CCC(O)CN(C)Cc1nnc2ccccn12 (stereo not given) please.
Ans. -1.119

Qu. Report Percent Effect for O=C(NCCN1CCOCC1)NCc1ncc(-c2ccccc2)o1 please.
Ans. 4.39

Others:
Qu. Report Percent Effect for CCCc1noc(CN2CCC(C(=O)Nc3cnn(CC)c3)CC2)n1 please.
Ans. 112.1

Qu. Report Percent Effect for O=C(Nc1cccc(F)c1)C1CCN(Cc2noc(C3CC3)n2)CC1 please.
Ans. -5.725

Qu. Report Percent Effect for CCn1ncc(CN2CCc3nc(-c4cccnc4)nc(O)c3C2)c1C please.
Ans. 89.32

Qu. Report Percent Effect for CC(C)c1noc(CN2CCC(C3CCCCCN3S(C)(=O)=O)CC2)n1.Cl (stereo not given) please.
Ans. 5.236

Qu. Report Percent Effect for COc1cc(OC)cc(C(=O)N(C)Cc2nnc3ccccn23)c1 please.
Ans. 132.8

Qu. Report Percent Effect for CN(C)C(=O)CN(C)C(=O)c1cccn1CCc1ccccc1 please.
Ans. -9.709

Qu. Report Percent Effect for Cc1ccc(C)c(C(O)CN(C)Cc2nnc3ccccn23)c1 (stereo not given) please.
Ans. -3.237

Qu. Report Percent Effect for c1cc(-c2nc3c(c(NCCc4c[nH]cn4)n2)CCNCC3)ccn1 please.
Ans. 6.655

Qu. Report Percent Effect for CS(=O)(=O)c1ccc(CNCC2CCN(CCO)CC2)cc1 please.
Ans. -3.753

Qu. Report Percent Effect for CC(C)NC(=O)CN(C1CC1)C(C)C1CC1 (stereo not given) please.
Ans. -3.628
